# STUDY_TARGET: Carbonic anhydrase 12 (Homo sapiens)
# Sequence (O43570 whole entry, the tested form may be a part): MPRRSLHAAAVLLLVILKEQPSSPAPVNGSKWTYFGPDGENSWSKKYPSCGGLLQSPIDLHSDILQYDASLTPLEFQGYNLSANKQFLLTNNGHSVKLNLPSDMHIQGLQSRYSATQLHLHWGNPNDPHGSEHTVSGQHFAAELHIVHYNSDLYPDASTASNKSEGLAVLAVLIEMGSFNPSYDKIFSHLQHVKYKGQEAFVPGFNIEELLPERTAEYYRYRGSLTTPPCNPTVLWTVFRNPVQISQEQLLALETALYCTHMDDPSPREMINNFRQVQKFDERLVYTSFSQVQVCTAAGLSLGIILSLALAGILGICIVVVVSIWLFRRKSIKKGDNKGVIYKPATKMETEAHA
# TEST_DESCRIPTION: Binding affinity to human recombinant CA12 catalytic domain assessed as dissociation constant calculated from saturation signal at pH 7 by surface plasmon resonance assay
PARAMETER_MEASURED: Kd (nM)

>>> assay_result("CCCSc1c(F)c(F)c(S(N)(=O)=O)c(NC2CCCCCCC2)c1F")
840

----------
# STUDY_TARGET: Carbonic anhydrase 9 (Homo sapiens)
# TEST_DESCRIPTION: Binding affinity to human recombinant CA9 catalytic domain assessed as dissociation rate constant at pH 7 by surface plasmon resonance assay
PARAMETER_MEASURED: Dissociation rate constant (koff)

>>> assay_result("NS(=O)(=O)c1ccc(C(=O)CSc2ncccn2)cc1Cl")
"3 ×10⁻¹ /s"
>>> assay_result("NS(=O)(=O)c1ccc(C(=O)CSc2ncccn2)cc1")
"1.4 ×10⁻¹ /s"
>>> assay_result("CC(C)(C)c1cc(=O)[nH]c(SCC(=O)c2ccc(S(N)(=O)=O)cc2)n1")
"1.4 ×10⁻¹ /s"
>>> assay_result("CCCSc1c(F)c(F)c(S(N)(=O)=O)c(NC2CCCCCCC2)c1F")
"7.2 ×10⁻³ /s"

----------
# STUDY_TARGET: UniProt:P00915
# Sequence (P00915 2-261 limits assumed): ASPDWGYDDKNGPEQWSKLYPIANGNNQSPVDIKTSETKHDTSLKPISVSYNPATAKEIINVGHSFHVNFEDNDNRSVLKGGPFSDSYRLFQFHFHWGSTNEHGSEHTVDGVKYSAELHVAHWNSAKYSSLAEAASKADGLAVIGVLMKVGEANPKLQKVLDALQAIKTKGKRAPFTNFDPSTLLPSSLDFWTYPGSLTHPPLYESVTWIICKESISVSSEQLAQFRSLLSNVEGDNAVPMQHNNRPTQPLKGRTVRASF
# TEST_DESCRIPTION: Binding affinity to human recombinant CA1 expressed in Escherichia coli assessed as association rate constant after 30 secs by surface plasmon resonance assay
Parameter K: see the listing below.
PARAMETER_MEASURED: K

>>> assay_result("NS(=O)(=O)c1ccc(C(=O)CSc2ncccn2)cc1Cl")
"3.1 ×10⁵ /M/s"
>>> assay_result("NS(=O)(=O)c1ccc(C(=O)Cn2cnc3ccccc32)cc1Cl")
"3.3 ×10⁵ /M/s"
>>> assay_result("COc1ccc(CNc2c(F)c(F)c(F)c(F)c2S(N)(=O)=O)cc1")
"1.1 ×10⁵ /M/s"
>>> assay_result("NS(=O)(=O)c1ccc(C(=O)Cn2cnc3ccccc32)cc1")
"2 ×10⁵ /M/s"
>>> assay_result("NS(=O)(=O)c1cccc(C(=O)Cn2cnc3ccccc32)c1")
"1.8 ×10⁴ /M/s"
>>> assay_result("CNc1c(F)c(S(N)(=O)=O)c(F)c(F)c1S(=O)(=O)CCc1ccccc1")
"3.9 ×10⁵ /M/s"

----------
Parameter Dissociation rate constant (koff): see the listing below.
# STUDY_TARGET: UniProt:Q16790
# TEST_DESCRIPTION: Binding affinity to human recombinant CA9 catalytic domain assessed as dissociation rate constant at pH 8 by surface plasmon resonance assay
PARAMETER_MEASURED: Dissociation rate constant (koff) (×10⁻¹ /s)

>>> assay_result("NS(=O)(=O)c1ccc(C(=O)CSc2ncccn2)cc1Cl")
1.8
>>> assay_result("NS(=O)(=O)c1ccc(C(=O)CSc2ncccn2)cc1")
1.2

----------
# STUDY_TARGET: UniProtKB P00918
# TEST_DESCRIPTION: Binding affinity to human recombinant CA2 expressed in Escherichia coli after 30 secs by surface plasmon resonance assay
PARAMETER_MEASURED: Kd

>>> assay_result("NS(=O)(=O)c1c(F)c(F)c(N2CCCCC2)c(F)c1F")
"6.8 nM"
>>> assay_result("NS(=O)(=O)c1cc(C(=O)Cn2c(Cc3ccccc3)nc3ccccc32)ccc1Cl")
"330 nM"
>>> assay_result("COc1ccc(CNc2c(F)c(F)c(F)c(F)c2S(N)(=O)=O)cc1")
"66 nM"
>>> assay_result("CCCS(=O)(=O)c1c(F)c(F)c(S(N)(=O)=O)c(F)c1NC1CCCCCCC1")
"100 nM"
>>> assay_result("NS(=O)(=O)c1cccc(C(=O)Cn2cnc3ccccc32)c1")
"760 nM"
>>> assay_result("CNc1c(F)c(S(N)(=O)=O)c(F)c(F)c1S(=O)(=O)CCc1ccccc1")
"6.4 nM"

----------
Parameter Kd: see the listing below.
# STUDY_TARGET: UniProt:Q8N1Q1
# TEST_DESCRIPTION: Binding affinity to human recombinant CA13 after 30 secs by surface plasmon resonance assay
PARAMETER_MEASURED: Kd (nM)

>>> assay_result("NS(=O)(=O)c1ccc(C(=O)Cn2cnc3ccccc32)cc1")
24
>>> assay_result("COc1ccc(CNc2c(F)c(F)c(F)c(F)c2S(N)(=O)=O)cc1")
210
>>> assay_result("CCCS(=O)(=O)c1c(F)c(F)c(S(N)(=O)=O)c(F)c1NC1CCCCCCC1")
15
>>> assay_result("NS(=O)(=O)c1c(F)c(F)c(N2CCCCC2)c(F)c1F")
11

----------
# STUDY_TARGET: UniProtKB O43570
# TEST_DESCRIPTION: Binding affinity to human recombinant CA12 catalytic domain assessed as dissociation constant calculated from saturation signal at pH 8 by surface plasmon resonance assay
PARAMETER_MEASURED: Kd (nM)

>>> assay_result("CCCSc1c(F)c(F)c(S(N)(=O)=O)c(NC2CCCCCCC2)c1F")
390

----------
Parameter log10 Kd: see the listing below.
# STUDY_TARGET: Carbonic anhydrase 9 (Homo sapiens)
# TEST_DESCRIPTION: Binding affinity to human recombinant CA9 catalytic domain after 30 secs by surface plasmon resonance assay
PARAMETER_MEASURED: log10 Kd (log10 of the value in nM)

>>> assay_result("COc1ccc(CNc2c(F)c(F)c(F)c(F)c2S(N)(=O)=O)cc1")
2.18
>>> assay_result("CCCSc1c(F)c(F)c(S(N)(=O)=O)c(F)c1F")
1.04
>>> assay_result("NS(=O)(=O)c1c(F)c(F)c(N2CCCCC2)c(F)c1F")
1.00
>>> assay_result("CC(C)(C)c1cc(=O)[nH]c(SCC(=O)c2ccc(S(N)(=O)=O)cc2)n1")
1.52
>>> assay_result("NS(=O)(=O)c1cccc(C(=O)Cn2cnc3ccccc32)c1")
2.38
>>> assay_result("NS(=O)(=O)c1cc(C(=O)CSc2ncccn2)ccc1Cl")
2.30
>>> assay_result("NS(=O)(=O)c1ccc(C(=O)Cn2cnc3ccccc32)cc1Cl")
1.67
>>> assay_result("CCCSc1c(F)c(F)c(S(N)(=O)=O)c(NC2CCCCCCC2)c1F")
1.43
>>> assay_result("CNc1c(F)c(S(N)(=O)=O)c(F)c(F)c1S(=O)(=O)CCc1ccccc1")
1.20
>>> assay_result("NS(=O)(=O)c1ccc(C(=O)Cn2cnc3ccccc32)cc1")
1.57
>>> assay_result("CC(C)(C)Nc1c(F)c(S(N)(=O)=O)c(F)c(F)c1S(=O)(=O)CCc1ccccc1")
0.96
>>> assay_result("NS(=O)(=O)c1ccc(C(=O)CSc2ncccn2)cc1")
1.82
>>> assay_result("NS(=O)(=O)c1ccc(C(=O)CSc2ncccn2)cc1Cl")
2.18

----------
# STUDY_TARGET: Carbonic anhydrase 13 (Homo sapiens)
# Sequence (Q8N1Q1 whole entry): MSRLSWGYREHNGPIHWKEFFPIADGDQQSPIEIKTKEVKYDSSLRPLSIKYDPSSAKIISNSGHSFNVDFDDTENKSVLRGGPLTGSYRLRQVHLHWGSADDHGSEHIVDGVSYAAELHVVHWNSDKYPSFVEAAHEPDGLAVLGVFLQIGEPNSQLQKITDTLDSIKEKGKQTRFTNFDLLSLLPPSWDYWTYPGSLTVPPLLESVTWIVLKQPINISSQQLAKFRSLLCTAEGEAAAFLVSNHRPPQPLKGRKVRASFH
# TEST_DESCRIPTION: Binding affinity to human recombinant CA13 by fluorescence-based thermal shift assay
PARAMETER_MEASURED: Kd

>>> assay_result("CCCSc1c(F)c(F)c(S(N)(=O)=O)c(NC2CCCCCCC2)c1F")
"0.033 µM"
>>> assay_result("COc1ccc(CNc2c(F)c(F)c(F)c(F)c2S(N)(=O)=O)cc1")
"0.05 µM"
>>> assay_result("CC(C)(C)Nc1c(F)c(S(N)(=O)=O)c(F)c(F)c1S(=O)(=O)CCc1ccccc1")
"0.0015 µM"
>>> assay_result("NS(=O)(=O)c1ccc(C(=O)Cn2cnc3ccccc32)cc1")
"0.033 µM"
>>> assay_result("NS(=O)(=O)c1cc(C(=O)Cn2cnc3ccccc32)ccc1Cl")
"0.11 µM"
>>> assay_result("CNc1c(F)c(S(N)(=O)=O)c(F)c(F)c1S(=O)(=O)CCc1ccccc1")
"0.00042 µM"
>>> assay_result("CCCS(=O)(=O)c1c(F)c(F)c(S(N)(=O)=O)c(F)c1NC1CCCCCCC1")
"0.0022 µM"
>>> assay_result("NS(=O)(=O)c1c(F)c(F)c(N2CCCCC2)c(F)c1F")
"0.004 µM"

----------
Parameter Dissociation rate constant (koff): see the listing below.
# STUDY_TARGET: Carbonic anhydrase 9 (Homo sapiens, UniProt Q16790)
# TEST_DESCRIPTION: Binding affinity to human recombinant CA9 catalytic domain assessed as dissociation rate constant at pH 6 by surface plasmon resonance assay
PARAMETER_MEASURED: Dissociation rate constant (koff)

>>> assay_result("NS(=O)(=O)c1ccc(C(=O)CSc2ncccn2)cc1")
"2.9 ×10⁻¹ /s"
>>> assay_result("CCCSc1c(F)c(F)c(S(N)(=O)=O)c(NC2CCCCCCC2)c1F")
"7.9 ×10⁻³ /s"
>>> assay_result("CC(C)(C)c1cc(=O)[nH]c(SCC(=O)c2ccc(S(N)(=O)=O)cc2)n1")
"1.5 ×10⁻¹ /s"
>>> assay_result("NS(=O)(=O)c1ccc(C(=O)CSc2ncccn2)cc1Cl")
"4.3 ×10⁻¹ /s"

From: ChEMBL document CHEMBL3797037
